PROTOCOL DESCRIPTION: High Content Imaging Cell-Based qHTS for Inhibitors of the mTORC1 Signaling Pathway in MEF Cells (AID 2667);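 note: Tsc2-/- p53-/- MEFs stably re-expressing wild-type Tsc2 exposed 24 h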
MEASUREMENT CONTEXT: series mostly up to 38.3 µM
Source text: NIH Molecular Libraries Probe Production Centers Network [MLPCN] NIH Chemical Genomics Center [NCGC] Assay Submitter (PI): Blenis, John; Hoffman, Greg; Harvard University […] For quantitative high throughput analysis of mTORC1 signaling, we developed a cell-based assay for immuno-fluorescence based detection of rpS6 phosphorylation on the Acumen Explorer that will be used a platform for the primary small molecule screen. […]
Inconclusive results are not listed. Calls of active or inactive are those of the source. Calls come from the whole dose curve; as a rule, active = well fitted inhibition curve with a large enough effect; inconclusive = small, poorly fitted or top-dose-only effect, or effect the other way; inactive = no such curve, though single readings can be large or run the other way.
MEASURED ENDPOINT: outcome

Reference set, count: 8
INSERT INTO results (compound, measured_endpoint, reported) VALUES
  ('CC(=O)/C(C)=N/O', 'outcome', 'inactive'),
  ('O=C1C2C=CC=CC2=NC(=S)N1CCN1CCC(=C(c2ccc(F)cc2)c2ccc(F)cc2)CC1 (stereo not given)', 'outcome', 'inactive'),
  ('Fc1ccc(CN(C2=NCCN2)c2c(Cl)cccc2Cl)cc1', 'outcome', 'inactive'),
  ('CC(=O)SC1CC2=CC(=O)CC[C@]2(C)C2CC[C@@]3(C)C(CC[C@@]34CCC(=O)O4)C12 (stereo not given in full)', 'outcome', 'inactive'),
  ('NC1CONC1=O (stereo not given)', 'outcome', 'inactive'),
  ('CN1CC(O)C(O)C(O)C1CO (stereo not given)', 'outcome', 'inactive'),
  ('Cc1nc2c(OCc3ccccc3)cccn2c1CC#N', 'outcome', 'inactive'),
  ('O=C(O)C1=CCNCC1', 'outcome', 'inactive');

Quick request: outcome for each listed item, please.
1. C=CC[C@H](N)C(=O)O
2. [Li+]
3. COc1ccccc1N1CCN(CCN(C(=O)c2ccc(F)cc2)c2ccccn2)CC1
4. CC(C)(C)c1ccc(/C=C/C(=O)Nc2ccc3c(c2)OCCO3)cc1
5. C[C@H]1CC2C3CCC4=CC(=O)C=C[C@]4(C)[C@@]3(Cl)[C@@H](O)C[C@]2(C)[C@@]1(O)C(=O)CO (stereo not given in full)
6. Cc1nc(N=Nc2ccc(C(=O)O)cc2)c(COP(=O)(O)O)c(C=O)c1O
7. NC1(C(=O)O)CCc2cc(C(=O)O)ccc21 (stereo not given)

(A)
1: inactive; 2: inactive; 3: inactive; 4: inactive; 5: inactive; 6: inactive; 7: inactive

Quick request: outcome for each listed item, please.
1. COc1cc(/C=C(\C#N)C(=O)c2ccc(O)c(O)c2)cc(I)c1O
2. COc1ccc2c(c1)CCC1C2CC[C@@]2(C)C1CC[C@@H]2NCCCCCCN1C(=O)C=CC1=O (stereo not given in full)
3. c1ccc2c(c1)CCC[C@H]2Nc1nc2ccccc2[nH]1
4. O=c1[nH]c(=O)c2nc3ccccc3nc2[nH]1
5. c1ccc2c(c1)CC(N1CCN(c3cccc4c3OCCO4)CC1)C2
6. NCCCCN=C(N)N

(A)
1. inactive
2. inactive
3. inactive
4. inactive
5. inactive
6. inactive

Quick request: outcome for each listed item, please.
1. O=C1OC(=O)C2C3CCC(O3)C12 (stereo not given)
2. CN[C@H](CC(=O)O)C(=O)O

(A)
1. inactive
2. inactive

Quick request: outcome for each listed item, please.
1. CN1Cc2sccc2C(c2ccc(O)c(O)c2)C1 (stereo not given)
2. NC(C(=O)N[C@@H]1C(=O)N2C(C(=O)O)=C(Cl)CS[C@H]12)c1ccccc1 (stereo not given in full)

(A)
1: inactive; 2: inactive

# credit: PubChem BioAssay (NCATS)
